Target System: norepinephrine transporter (UniProt Q9WTR4)
Protocol Details: Inhibition of [3H]nisoxetine radioligand binding at the norepinephrine transporter
Assay Conditions: read-out: NEN IC50 for inhibition of radioligand binding; NEN=[3H] nisoxetine
pIC50: −log10 of the molar value.

Molecule | Target System | pIC50
COC(=O)[C@@H]1C2CCC(C[C@@H]1c1ccc(Cl)c(C)c1)N2C (stereo partly drawn) | norepinephrine transporter (UniProt Q9WTR4) | 7.44
Cc1ccc(C2CC3CCC(C2c2ccccc2)N3C)cc1 (stereo not drawn) | norepinephrine transporter (UniProt Q9WTR4) | 5.22
CC(C)OC(=O)C1C(c2ccc(Cl)cc2)CC2CCC1N2C (stereo not drawn) | norepinephrine transporter (UniProt Q9WTR4) | 6.11
CC(C)C1C(c2ccc(Cl)cc2)CC2CCC1N2C (stereo not drawn) | norepinephrine transporter (UniProt Q9WTR4) | 7.07
Cc1noc([C@@H]2C3CCC(C[C@H]2c2ccccc2)N3C)n1 (stereo partly drawn) | norepinephrine transporter (UniProt Q9WTR4) | 5.16
COC(=O)[C@H]1[C@@H](c2ccc(C#Cc3ccccc3)cc2)C[C@@H]2CC[C@H]1N2C | norepinephrine transporter (UniProt Q9WTR4) | 6.46
CN1C2CCC1C(C(=O)Oc1ccccc1)C(c1ccc(Cl)cc1)C2 (stereo not drawn) [RTI-4229-113] | norepinephrine transporter (UniProt Q9WTR4) | 5.53
Cc1cccc(OC(=O)C2C(c3ccc(Cl)cc3)CC3CCC2N3C)c1 (stereo not drawn) | norepinephrine transporter (UniProt Q9WTR4) | 5.56
C/C=C/c1ccc(C2CC3CCC(C2C(=O)OC)N3C)cc1 (stereo not drawn) | norepinephrine transporter (UniProt Q9WTR4) | 5.80

====

Target System: dopamine transporter (UniProt P23977)
Assay type: binding
Assay Conditions: read-out: DA IC50 for inhibition of radioligand binding; DA=[3H]WIN 35,428
Counter-ions that a name gives are not always drawn.
Recorded IC50 values for a group of compounds are listed next.

Compound | IC50 [nM]
Cc1ccc([C@H]2C[C@@H]3CC[C@H]([C@H]2c2ncc(-c4ccccc4)o2)N3C)cc1 [RTI-4229-178, Tartrate] | 35.4
Cc1ccc([C@H]2C[C@@H]3CC[C@H]([C@H]2c2nnc(-c4ccccc4)s2)N3C)cc1 [RTI-4229-199, Hydrochloride] | 35.9
CN1[C@H]2CC[C@@H]1[C@@H](c1nnc(-c3ccccc3)o1)[C@@H](c1ccc(Cl)cc1)C2 [RTI-4229-188, Hydrochloride] | 12.6
CN1C2CCC1C(C(=O)OC1CC1)C(c1ccc(Cl)cc1)C2 (centres unmarked) [RTI-4229-190] | 0.96
CC(C)OC(=O)C1C(c2ccc(I)cc2)CC2CCC1N2C (centres unmarked) [RTI-4229-121] | 0.43
CN1C2CCC1[C@@H](c1cc(-c3ccc(Cl)cc3)no1)[C@@H](c1ccc(Cl)cc1)C2 (some centres unmarked) [RTI-4229-345] | 6.42
CCC(CC)OC(=O)C1C(c2ccc(C)cc2)CC2CCC1N2C (centres unmarked) [RTI-4229-127] | 19
CCc1ccc(C2CC3CCC(N3)C2C(=O)OC)cc1 (centres unmarked) [RTI-4229-173] | 49.9

====

Target System: serotonin transporter (Rattus norvegicus)
Construct: from tissue
Protocol Details: Inhibition of [3H]paroxetine radioligand binding at the serotonin transporter
Assay Conditions: IC50 5-HT [3H]-paroxetine, Table IV
Quantity Kind: log10 of IC50 (log10 of the value in µM)

Molecule | log10 of IC50
CN1[C@H]2CC[C@@H]1[C@@H](C(=O)O)[C@@H](c1ccc(Br)cc1)C2 | 0.49
CN1C2CCC1[C@@H](CCl)[C@@H](c1ccc(Cl)cc1)C2 (stereo partly shown) | -1.01
COC(=O)CC1C(c2ccc(C)cc2)CC2CCC1N2C (stereo not shown) | -0.21
Cc1ccc([C@H]2C[C@@H]3CC[C@H]([C@H]2CN)N3C)cc1 | -0.07
CN1C2CCC1C(CO)C(c1ccc(I)cc1)C2 (stereo not shown) | -1.59
CC(C)C1C(c2ccc(Cl)cc2)CC2CCC1N2C (stereo not shown) | -1.42
CN1[C@H]2CC[C@@H]1[C@@H](CO)[C@@H](c1ccc(Cl)cc1)C2 | -0.69

====

Target System: norepinephrine transporter (UniProt Q9WTR4)
Protocol Details: Inhibition of [3H]nisoxetine radioligand binding at the norepinephrine transporter
Assay Conditions: read-out: IC50 NE [3H]-nisoxetine; Table II
pIC50: −log10 of the molar value. Counter-ions that a name gives are not always drawn.
Please enter true (1) where pIC50 is greater than or equal to 6, and false (0) where it is lower.

Compound | Target System | Assigned Label
Cc1cc([C@H]2[C@@H](c3ccc(Cl)cc3)C[C@@H]3CC[C@H]2N3C)on1 [RTI-165, Hydrochloride] | norepinephrine transporter (UniProt Q9WTR4) | true (1)
CN1[C@H]2CC[C@@H]1[C@@H](c1nc3ccccc3s1)[C@@H](c1ccc(Cl)cc1)C2 [RTI-4229-202, Hydrochloride] | norepinephrine transporter (UniProt Q9WTR4) | true (1)
Cc1ccc([C@H]2C[C@@H]3CC[C@H]([C@H]2c2nn[nH]n2)N3C)cc1 [RTI-157, Hydrochloride] | norepinephrine transporter (UniProt Q9WTR4) | false (0)
Cc1ccc([C@H]2C[C@@H]3CC[C@H]([C@H]2c2nnc(C)o2)N3C)cc1 [RTI-4229-194, Hydrochloride] | norepinephrine transporter (UniProt Q9WTR4) | true (1)
CN1C2CCC1C(c1nnc(-c3ccccc3)s1)C(c1ccc(Cl)cc1)C2 (stereo not shown) [RTI-4229-200, Hydrochloride] | norepinephrine transporter (UniProt Q9WTR4) | false (0)

====

Target System: serotonin transporter (Rattus norvegicus, UniProt P31652)
Construct: from tissue
Sequence (P31652 whole entry): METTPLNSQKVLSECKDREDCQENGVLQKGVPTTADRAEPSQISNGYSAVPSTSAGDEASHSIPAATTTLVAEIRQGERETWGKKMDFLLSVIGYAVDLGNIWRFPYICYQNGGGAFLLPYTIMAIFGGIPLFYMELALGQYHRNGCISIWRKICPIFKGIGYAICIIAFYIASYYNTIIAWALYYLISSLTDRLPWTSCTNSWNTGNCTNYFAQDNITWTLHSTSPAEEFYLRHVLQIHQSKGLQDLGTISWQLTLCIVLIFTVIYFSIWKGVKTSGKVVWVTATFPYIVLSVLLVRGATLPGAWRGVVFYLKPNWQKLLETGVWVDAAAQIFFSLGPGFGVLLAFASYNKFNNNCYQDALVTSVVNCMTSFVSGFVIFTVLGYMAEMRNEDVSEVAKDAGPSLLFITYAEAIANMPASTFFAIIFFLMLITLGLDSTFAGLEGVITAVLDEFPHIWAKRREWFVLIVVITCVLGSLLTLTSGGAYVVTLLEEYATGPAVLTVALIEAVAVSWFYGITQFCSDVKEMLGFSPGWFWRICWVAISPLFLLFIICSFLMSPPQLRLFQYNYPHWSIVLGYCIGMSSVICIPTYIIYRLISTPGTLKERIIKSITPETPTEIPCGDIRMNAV
Protocol Details: Inhibition of [3H]paroxetine radioligand binding at the serotonin transporter
Assay Conditions: 5-HT=[3H] paroxetine; read-out: 5-HT IC50 for inhibition of radioligand binding
pIC50: −log10 of the molar value.
Quantity Kind: pIC50

Compound | Measured Number
CC#Cc1ccc(C2CC3CCC(C2C(=O)OC)N3C)cc1 (stereo not drawn) | 7.80
CCCc1ccc(C2CC3CCC(C2C(=O)OC)N3C)cc1 (stereo not drawn) | 7.15
Cc1ccc(OC(=O)C2C(c3ccc(Cl)cc3)CC3CCC2N3C)cc1 (stereo not drawn) | 5.92
CN1C2CCC1C(C(=O)OC1CC1)C(c1ccc(Cl)cc1)C2 (stereo not drawn) | 6.77
CN1C2CCC1C(C(=O)Oc1ccccc1)C(c1ccc(Cl)cc1)C2 (stereo not drawn) | 5.63
CCc1ccc(C2CC3CCC(N3)C2C(=O)OC)cc1I (stereo not drawn) | 9.16
CCC(CC)OC(=O)C1C(c2ccc(C)cc2)CC2CCC1N2C (stereo not drawn) | 5.35
C=C(C)c1ccc(C2CC3CCC(C2C(=O)OC)N3C)cc1 (stereo not drawn) | 8.50
COC(=O)C1C2CCC(CC1c1ccc(F)cc1)N2 (stereo not drawn) | 7.16

====

Target System: UniProt P23977
Assay type: binding
Assay Conditions: read-out: DA IC50 for inhibition of radioligand binding; DA=[3H]WIN 35,428
Structures can show the parent of a compound that is named as a salt.
Decision: IC50 beneath 4 nM gives TRUE; IC50 meeting or exceeding 4 nM gives FALSE.

Molecule | Assigned Label
CCOC(=O)CN1C2CCC1C(C(=O)OC)C(c1ccc(Cl)cc1)C2 (stereo not shown) [RTI-4229-251] | TRUE
Cc1noc(C2C(c3ccccc3)CC3CCC2N3C)n1 (stereo not shown) [RTI-4229-126] | FALSE
CN1[C@H]2CC[C@@H]1[C@@H](c1nc3ccccc3s1)[C@@H](c1ccc(Cl)cc1)C2 [RTI-4229-202, Hydrochloride] | TRUE
Cc1ccc(C2CC3CCC(C2C(=O)OC2CC2)N3C)cc1 (stereo not shown) [RTI-4229-193] | TRUE
Cc1ccc(C2CC3CCC(C2C(=O)Oc2ccccc2)N3C)cc1 (stereo not shown) [RTI-4229-120] | TRUE
COC(=O)C1C2CCC(CC1c1ccc(C)c(I)c1)N2 (stereo not shown) [RTI-4229-279] | FALSE
CN1[C@H]2CC[C@@H]1[C@@H](c1cc(-c3ccccc3)no1)[C@@H](c1ccc(I)cc1)C2 [RTI-4229-181, Hydrochloride] | TRUE
CCCc1ccc(C2CC3CCC(C2C(=O)OC)N3C)cc1 (stereo not shown) [RTI-4229-282] | FALSE
C=C(C)c1ccc(C2CC3CCC(C2C(=O)OC)N3C)cc1 (stereo not shown) [RTI-4229-283] | FALSE
CC#Cc1ccc(C2CC3CCC(C2C(=O)OC)N3C)cc1 (stereo not shown) [RTI-4229-281] | TRUE
Cc1ccc(C2CC3CCC(C2C(=O)OC(C)C)N3C)cc1 (stereo not shown) [RTI-4229-117] | FALSE
CN1C2CCC1C(C(=O)N1CCCC1)C(c1ccc(Cl)cc1)C2 (stereo not shown) [RTI-4229-147] | TRUE
C=C(C)C1C(c2ccc(Cl)cc2)CC2CCC1N2C (stereo not shown) [RTI-4229-230] | TRUE
COC(=O)C1C(c2ccc(Br)cc2)CC2CCC1N2C (stereo not shown) [RTI-4229-51] | TRUE
COC(=O)[C@@H]1C2CCC(C[C@@H]1c1ccc3ccccc3c1)N2C (stereo partly shown) [RTI-4229-318] | TRUE
CCc1ccc(C2CC3CCC(C2C(=O)OC)N3C)cc1 (stereo not shown) [RTI-4229-83] | FALSE
O=C1CCN2C3CCC2C1C(c1ccc(Cl)cc1)C3 (stereo not shown) [RTI-4229-243] | FALSE
COC(=O)[C@@H]1C2CCC(C[C@@H]1c1ccc(I)cc1)N2 (stereo partly shown) [RTI-4229-98] | TRUE
COC(=O)C1C(c2ccc(I)cc2)CC2CCC1N2C (stereo not shown) [RTI-4229-55] | TRUE
CC(C)OC(=O)C1C(c2ccc(Cl)cc2)CC2CCC1N2C (stereo not shown) [RTI-4229-114] | TRUE
CN1C2CCC1[C@@H](CCl)[C@@H](c1ccc(Cl)cc1)C2 (stereo partly shown) [RTI-4229-108] | TRUE
CN1C2CCC1C(C(=O)OCCc1ccc(N)c(I)c1)C(c1ccc(Cl)cc1)C2 (stereo not shown) [RTI-4229-77] | TRUE
COC(=O)C1C(c2ccc(F)c(C)c2)CC2CCC1N2C (stereo not shown) [RTI-4229-96] | TRUE
CN1C2CCC1C(c1ccccc1)C(c1ccccc1)C2 (stereo not shown) [RTI-4229-348] | FALSE
COC(=O)OCC1C(c2ccc(Cl)cc2)CC2CCC1N2C (stereo not shown) [RTI-4229-145] | FALSE
COC(=O)C1C2CCC(CC1c1ccc(F)cc1)N2 (stereo not shown) [RTI-4229-142] | FALSE
CCc1ccc(C2CC3CCC(N3)C2C(=O)OCc2ccccc2)cc1 (stereo not shown) [RTI-4229-338] | FALSE
CN1C2CCC1C(COC(=O)c1ccccc1)C(c1ccc(Cl)cc1)C2 (stereo not shown) [RTI-4229-123] | TRUE
CN1C2CCC1C(COc1ccc(I)cc1)C(c1ccc(Cl)cc1)C2 (stereo not shown) [RTI-4229-116] | FALSE
CC(C)c1noc(C2C(c3ccc(Cl)cc3)CC3CCC2N3C)n1 (stereo not shown) [RTI-4229-154] | FALSE
COC(=O)C1C2CCC(CC1c1ccc(Cl)cc1)N2 (stereo not shown) [RTI-4229-110] | TRUE
Cc1ccc([C@H]2C[C@@H]3CC[C@H]([C@H]2c2nnc(C)o2)N3C)cc1 [RTI-4229-194, Hydrochloride] | FALSE
Cc1ccc(OC(=O)C2C(c3ccc(Cl)cc3)CC3CCC2N3C)cc1 (stereo not shown) [RTI-4229-206] | FALSE

FYI, the data here is from patent US6706880B2.
